The reported numbers originate from PubChem BioAssay.

- procedureSummary: changes in parasitized red cell lysis, either direction – P. falciparum Indochina, OD700, 3 h, PSAC antagonist project, primary screen (AID 1156)
- experimentalConditions: P. falciparum-infected erythrocytes, osmotic lysis, called active from +8 up or from −8 down
Active and inactive are the calls of the source.
Returns: one label drawn from True (active), False (inactive)

[
  {
    "compound": "C=CCC(OC(C)=O)[C@@H]1[C@@H](N(Cc2cc3ccccc3o2)C(=O)Cc2ccc(OC)cc2)c2cc(OCCCO)ccc2N1C(=O)c1ccc(-c2ccccc2)cc1 (stereo partly drawn)",
    "qualitativeLabel": "False"
  },
  {
    "compound": "CC(C)CCC[C@@H](C)[C@H]1CC[C@@]2(C)C3=C(CC[C@]12C)[C@@]1(C)CC[C@H](OC(=O)C(C)(C)C)C(C)(C)C1CC3 (stereo partly drawn)",
    "qualitativeLabel": "False"
  },
  {
    "compound": "COc1ccc(C#Cc2ccc3c(c2)[C@]2(C(=O)N3)[C@H](C(=O)O)[C@H]3C(=O)O[C@H](c4ccccc4)[C@H](c4ccccc4)N3[C@@H]2c2ccc(OCCO)cc2)cc1",
    "qualitativeLabel": "True"
  },
  {
    "compound": "COCCOC(=O)N1C(=O)[C@@]2(c3cc(C#CC4(O)CCCCCC4)ccc31)[C@H](C(=O)NC[C@H](O)c1ccccc1)[C@H]1C(=O)O[C@H](c3ccccc3)[C@H](c3ccccc3)N1[C@@H]2c1ccc(OCCO)cc1",
    "qualitativeLabel": "False"
  },
  {
    "compound": "CN(C)C(=O)[C@@]1(CCS(=O)(=O)c2ccccc2)N=C(c2ccc(OCCCO)cc2)O[C@H]1c1ccccc1CN=[N+]=[N-]",
    "qualitativeLabel": "False"
  },
  {
    "compound": "COC(=O)[C@]1(Cc2ccccc2CN=[N+]=[N-])N=C(c2ccc(OCCCO)cc2)O[C@@H]1c1ccccc1CN=[N+]=[N-]",
    "qualitativeLabel": "False"
  },
  {
    "compound": "C#CCOC(=O)N[C@H](C=CCCCC)c1ccccc1",
    "qualitativeLabel": "False"
  },
  {
    "compound": "COC(=O)c1ccc(OC)c(/C=C\\CC(CCc2ccccc2)OC(C)=O)c1 (stereo not drawn)",
    "qualitativeLabel": "False"
  },
  {
    "compound": "COCCCNC(=O)[C@@]1(C)c2ccccc2C(=O)N(c2ccc(C)cn2)[C@H]1c1ccc(CO)cc1",
    "qualitativeLabel": "False"
  },
  {
    "compound": "COc1ccc(C#Cc2ccc3c(c2)[C@]2(C(=O)N3)[C@H](c3ccc(OCCO)cc3)N3[C@H](c4ccccc4)[C@H](c4ccccc4)OC(=O)[C@H]3[C@@H]2C(=O)N2CCN(c3ncccn3)CC2)cc1",
    "qualitativeLabel": "False"
  }
]

Would you mind telling me which call this test gave CCCCCCC#C[Si](O[C@H](c1ccccc1)c1cn(Cc2cccc(Cl)c2)nn1)(C(C)C)C(C)C ?
False

What outcome does the record of this test show for COc1ccc([Si](C)(C)[C@@H]2[C@@H](CC(=O)N3Cc4ccccc4C[C@H]3CO)O[C@]3(C(=O)N(Cc4cccc(N5CCCCC5=O)c4)c4ccccc43)[C@H]2C)cc1 ?
False

What did the test return for C[C@]12C(=O)N(CCCCCO)[C@@H]3C(=O)N(c4ccc(Cl)cc4)CC=CC31O[C@@H]1/C=C\CCCOC(=O)C12 (stereo partly drawn) ?
False

* * *

A collection of molecules and their measured composite z-score
- subjectOfTest: Focal adhesion kinase 1 (Homo sapiens) (UniProt Q05397)
- Sequence (Q05397 whole entry, looked up): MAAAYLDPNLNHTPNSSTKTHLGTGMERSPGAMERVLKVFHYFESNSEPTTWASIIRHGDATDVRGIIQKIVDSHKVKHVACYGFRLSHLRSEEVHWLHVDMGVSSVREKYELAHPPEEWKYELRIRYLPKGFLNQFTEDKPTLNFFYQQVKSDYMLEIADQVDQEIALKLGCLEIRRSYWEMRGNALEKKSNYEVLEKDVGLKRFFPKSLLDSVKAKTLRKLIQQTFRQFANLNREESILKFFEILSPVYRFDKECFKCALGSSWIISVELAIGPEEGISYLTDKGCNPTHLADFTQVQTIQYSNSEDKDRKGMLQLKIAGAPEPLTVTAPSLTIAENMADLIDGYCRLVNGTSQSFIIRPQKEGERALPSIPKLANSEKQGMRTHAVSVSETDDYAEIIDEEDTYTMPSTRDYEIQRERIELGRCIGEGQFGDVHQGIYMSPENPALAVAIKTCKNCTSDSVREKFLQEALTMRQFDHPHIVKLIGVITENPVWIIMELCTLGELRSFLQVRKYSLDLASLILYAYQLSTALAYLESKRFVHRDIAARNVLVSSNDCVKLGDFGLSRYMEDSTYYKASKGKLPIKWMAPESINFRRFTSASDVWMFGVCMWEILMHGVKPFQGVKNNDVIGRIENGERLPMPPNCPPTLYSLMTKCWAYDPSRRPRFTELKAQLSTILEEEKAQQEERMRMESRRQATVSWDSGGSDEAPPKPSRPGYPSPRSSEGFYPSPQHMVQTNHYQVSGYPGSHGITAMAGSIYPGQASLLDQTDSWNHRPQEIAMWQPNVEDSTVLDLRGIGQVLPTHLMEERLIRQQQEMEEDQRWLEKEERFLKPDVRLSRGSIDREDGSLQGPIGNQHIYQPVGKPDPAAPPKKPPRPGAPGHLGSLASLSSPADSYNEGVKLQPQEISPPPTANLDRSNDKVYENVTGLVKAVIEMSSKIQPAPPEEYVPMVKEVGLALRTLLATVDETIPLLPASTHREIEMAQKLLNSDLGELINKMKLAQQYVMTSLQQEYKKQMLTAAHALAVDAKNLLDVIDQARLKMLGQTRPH
- procedureSummary: PTK2 protein binding on printed compound slides – biochemical, small-molecule microarray, 635/667 nm fluorescence, BSA, DTT, primary screen (AID 1130);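 note: composite of spot emission at 667 nm and signal to noise over triplicate slides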
- experimentalConditions: 635 nm fluorescence, higher = more signal

[
  {
    "molecule": "COC(=O)[C@@]1(Cc2ccc(OC)cc2)[C@H]2c3cc(C(=O)N(C)C)n(Cc4cc(F)c(F)c(F)c4)c3C[C@H]2CN1C(=O)c1ccccc1",
    "subjectOfTest": "Focal adhesion kinase 1 (Homo sapiens) (UniProt Q05397)",
    "composite z-score": 1.86
  }
]

Please look at this molecule and report its composite z-score: O=C(NCc1ccccc1)[C@]1(Cc2ccccc2)N=C(c2ccc(OCCCO)cc2)O[C@@H]1c1ccccc1
0.121

Please look at this molecule and report its composite z-score: C=C[C@H](C)[C@H](OC(=O)Nc1ccc(SC)cc1)c1ccc(O)c2ccccc12
0.209

Specify composite z-score for N#Cc1ccc(NN2C(C(O)c3ccccc3)C=CC3C(=O)N(c4ccccc4)C(=O)C32)cc1 (centres undefined) and stop.
0.452

Supply recorded composite z-score for COCCCNC(=O)[C@@]1(Cc2ccccc2N=[N+]=[N-])N=C(c2ccc(OCCCO)cc2)O[C@H]1c1ccccc1CN=[N+]=[N-] here.
1.06

Please supply the value of reported composite z-score for the item CCCCCCCCCCC(O)C1C=CC2C(=O)NC(=O)C2N1Nc1ccccn1 (centres undefined)
0.675

State its composite z-score for this molecule: O=C1O[C@H](c2ccccc2)[C@H](c2ccccc2)N2[C@H]1[C@@H](C(=O)N1CCCCCCC1)[C@]1(C(=O)Nc3ccc(C#CCCO)cc31)[C@H]2c1ccc(OCCO)cc1
5.23

Give composite z-score for the following molecule: CCCC[C@H]1OB(O)C[C@H]2C1=C(COc1ccccc1)Cn1c(=O)n(-c3ccccc3)c(=O)n12
-0.0229

Look up and state reported composite z-score for COC(=O)[C@@]1(Cc2ccc(F)cc2)[C@H]2c3cc(C(=O)N(C)C)n(Cc4ccc(C)c(F)c4F)c3C[C@H]2CN1C(=O)c1ccccc1
0.454

* * *

- procedureSummary: S6 kinase pathway phospho-S6 level changes – cell-based, A549, cytoblot, luminescence, serum-stimulated, primary screen (AID 1158);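 note: serum-stimulated A549 lung adenocarcinoma cells; signal is phosphorylated S6 detected by cytoblot immunostaining with HRP secondary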
- experimentalConditions: 5 h, higher = more signal
The recorded z-score of each item maps onto one of these classes: low interval (below -0.2), middle interval (-0.2 to below 0.3), high interval (0.3 or more)

Completed entries (count: 3):
[
  {
    "compound": "O=C1c2ccccc2[C@](Cc2ccccc2I)(C(=O)NC2CC2)[C@H](c2ccc(CO)cc2)N1Cc1ccccc1Cl",
    "qualitativeLabel": "low interval"
  },
  {
    "compound": "[N-]=[N+]=Nc1ccccc1[C@H]1OC(c2ccc(OCCCO)cc2)=N[C@@]1(Cc1ccccc1)C(=O)NCc1ccccc1",
    "qualitativeLabel": "high interval"
  },
  {
    "compound": "C=C[C@@H](O)[C@H]1CC(c2ccccc2)=NO1",
    "qualitativeLabel": "middle interval"
  }
]

Exercise: read the entry O=C1C[C@@](C(=O)NCc2ccccc2)(c2ccc([N+](=O)[O-])cc2)[C@@H](c2ccc(CO)cc2I)N1C1CCCCC1 and state which class it falls under.
middle interval

Could you place CCCCC=C[C@@H](NC(=O)CCc1ccccc1)c1ccccc1 in its proper category? Many thanks.
middle interval

Which class holds C=CCOc1ccc([C@@H]2CC=C(C(=O)OCC)[C@H](c3cccc(Br)c3)N2S(=O)(=O)c2ccc(C)cc2)cc1 ?
high interval

* * *

- procedureSummary: optical density shifts of acrAB sulA E. coli – strain DRC41, OD650, 48 h, E. coli filamentation inducer project, primary screen (AID 1152);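 note: E. coli MC1000 strain DRC41 lacking acrAB efflux pump and sulA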
- experimentalConditions: higher = more signal, called active from +8 up or from −8 down
Activity calls are given as the source filed them.
quantityKind: z-score

Examples with their reported z-score follow.
[
  {
    "molecule": "C=CCC(OC(C)=O)[C@@H]1[C@@H](N(Cc2ccc(-c3ccccc3)cc2)C(=O)Cc2ccc(OC)cc2)c2cc(OCCCO)ccc2N1C(=O)c1ccc(-c2ccccc2)cc1 (stereo partly specified)",
    "z-score": "0.769 (inactive)"
  },
  {
    "molecule": "COCCOC(=O)N1C(=O)[C@@]2(c3cc(C#CCCO)ccc31)[C@H](C(=O)NC[C@H](O)c1ccccc1)[C@H]1C(=O)O[C@H](c3ccccc3)[C@H](c3ccccc3)N1[C@@H]2c1ccccc1OCCO",
    "z-score": "-0.0118 (inactive)"
  },
  {
    "molecule": "CC(C)=CCCC(C)=CC(O)C1C=CC2C(=O)N(c3ccccc3)C(=O)C2N1Nc1ccc([N+](=O)[O-])cc1 (stereo unspecified)",
    "z-score": "-1.41 (inactive)"
  }
]

Using the record for COCCOC(=O)N1C(=O)[C@@]2(c3ccccc31)[C@H](c1ccc(OCCO)cc1)N1[C@H](c3ccccc3)[C@H](c3ccccc3)OC(=O)[C@H]1[C@@H]2C(=O)NC[C@H](O)c1ccccc1 , state its measured z-score.
-0.769 (inactive)

Tell me measured z-score for CCCC=C(CCC)[C@@H](NS(=O)(=O)c1cccc2cccnc12)c1ccc(C(=O)OC)cc1 please.
-1.2 (inactive)

Identify measured z-score associated with O=C(O)[C@@]1(Cc2ccccc2)COC(c2ccc(OCCCO)cc2)=N1
0.532 (inactive)
